EXPERIMENT: gradient 5% acetonitrile 3 min, to 50% in 2 min, to 85% in 15 min, held 3 min, 100 µL/min
TEST_PARAMETERS: column: Zorbax Extend-C18 2.1 x 50 mm; eluents: water / acetonitrile, 0.1% formic acid
MEASURE: RP-LC retention time (s)

Below, 5 compounds whose answers are already recorded.
Cc1nc(-c2ccccc2)cc2nn(CC(=O)N3CCc4ccccc43)c(=O)n12 : 966
CCCN(CCC)c1nc2cc(C(=O)OC)ccc2c(=O)n1-c1ccccc1 : 1320
Cc1cc(C(=O)N2CC(N(C(=O)NC(C)C)C3CCOCC3)C2)nn1C : 576
O=C(Nc1nc2c(s1)CCCC2)c1cccc(C(F)(F)F)c1 : 1030
O=C(Cn1cccn1)N1CCCC(c2nnc(-c3ccccc3F)s2)C1 (stereo not drawn) : 690

1. COc1ccc2cc(C(=O)N3CCC(CC(=O)NCCc4c[nH]c5ccc(C)cc45)CC3)[nH]c2c1
2. COC1CCC12CCN(Cc1ccccn1)CC2 (stereo not drawn)
Which value of RP-LC retention time is smaller, the one for 1 or the one for 2 ? To answer, give the label that identifies your chosen option.
2
(2: 571 s, 1: 817 s)

I. CC(C)C1c2nccn2CCCN1C(=O)c1cc(C2CC2)[nH]n1 (stereo not drawn)
II. CNC(=O)c1c(NC(=O)C2COc3ccccc3O2)sc2c1CCCC2 (stereo not drawn)
Please state the entry with greater RP-LC retention time among I and II . Could you answer with the label of the item you picked?
II
(II: 1030 s, I: 592 s)
